# Target Or Test System: T1, human MCH-2R (human, UniProt Q969V1 1-340)
# T1 construct: Function: 293AEQ17/MCH-2R cells; also called hMCH-2R
# T1 sequence (Q969V1 whole entry): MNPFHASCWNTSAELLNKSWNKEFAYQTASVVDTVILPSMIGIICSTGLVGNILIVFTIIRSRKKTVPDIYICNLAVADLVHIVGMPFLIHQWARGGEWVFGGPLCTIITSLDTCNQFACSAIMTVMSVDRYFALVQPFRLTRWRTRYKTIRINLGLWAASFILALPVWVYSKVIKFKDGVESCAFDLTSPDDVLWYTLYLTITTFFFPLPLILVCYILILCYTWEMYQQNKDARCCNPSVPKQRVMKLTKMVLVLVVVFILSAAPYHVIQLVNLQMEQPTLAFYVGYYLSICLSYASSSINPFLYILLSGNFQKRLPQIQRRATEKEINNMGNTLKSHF
# Assay Comment: SPA, displacement of [125I]-[Phe13,Tyr19]-hMCH, MCH-2R membranes
pIC50: −log10 of the molar value.

| Binder | pIC50 |
| --- | --- |
| XCMLGRVYRPC (HELM PEPTIDE1{[ac].[dA].C.M.L.G.R.V.Y.R.P.C.[am]}$PEPTIDE1,PEPTIDE1,3:R3-12:R3$$$V2.0; SMILES CSCC[C@@H]1NC(=O)[C@@H](NC(=O)[C@@H](C)NC(C)=O)CSSC[C@@H](C(N)=O)NC(=O)[C@@H]2CCCN2C(=O)[C@H](CCCNC(=N)N)NC(=O)[C@H](Cc2ccc(O)cc2)NC(=O)[C@H](C(C)C)NC(=O)[C@H](CCCNC(=N)N)NC(=O)CNC(=O)[C@H](CC(C)C)NC1=O) [SEQ. ID. NO. 6 (Ac-D-Ala^6 analog of Ac-hMCH(6-16)-NH2)] | 5.57 |
